Target: Beta-2 adrenergic receptor (Homo sapiens)
Sequence (P07550 whole entry): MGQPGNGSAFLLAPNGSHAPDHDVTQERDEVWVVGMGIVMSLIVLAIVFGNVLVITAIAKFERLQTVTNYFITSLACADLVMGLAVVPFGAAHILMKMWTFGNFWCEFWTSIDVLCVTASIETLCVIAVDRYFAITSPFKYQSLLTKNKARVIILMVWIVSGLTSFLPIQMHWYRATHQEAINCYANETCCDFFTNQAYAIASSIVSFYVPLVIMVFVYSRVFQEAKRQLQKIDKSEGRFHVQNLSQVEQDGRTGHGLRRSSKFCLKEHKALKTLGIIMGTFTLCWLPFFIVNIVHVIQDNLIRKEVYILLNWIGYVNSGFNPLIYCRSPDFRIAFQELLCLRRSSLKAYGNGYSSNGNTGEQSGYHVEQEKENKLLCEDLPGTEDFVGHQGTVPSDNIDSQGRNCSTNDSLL
Experiment: Agonist activity at human beta-2 adrenergic receptor expressed in CHO cells assessed as cAMP level
This section presents compounds with their documented EC50 values.

> print(dat)
                                   compound  measured.attribute  reported.value
1  CC(C)(Cc1ccc(Oc2ccc(C(N)=O)cn2)cc1)NC[C@H](O)COc1cccc2c1C1(CC1)C(=O)N2                EC50       0.0352 µM
2  CC1C(=O)Nc2cccc(OC[C@@H](O)CNC(C)(C)Cc3ccc(Oc4ccc(C(N)=O)cn4)cc3)c21 (some centres undefined)                EC50         > 10 µM
3  CC(C)(Cc1ccc(Oc2ccc(C(N)=O)cn2)cc1)NC[C@H](O)COc1cccc2c1C1(CCC1)C(=O)N2                EC50         > 10 µM

Could you now consider this next compound?
Query block: Using known records, supply EC50 for CC(C)CC1C(=O)Nc2cccc(OC[C@@H](O)CNC(C)(C)Cc3ccc(Oc4ccc(C(N)=O)cn4)cc3)c21 (some centres undefined)
Result block: > 10 µM

====

Target: Beta-3 adrenergic receptor (Homo sapiens, UniProt P13945)
Test: Agonist activity at human beta-3 adrenergic receptor expressed in CHO cells assessed as cAMP level relative to isoproterenol
Type: functional, cell-based
Sequence (P13945 whole entry, looked up): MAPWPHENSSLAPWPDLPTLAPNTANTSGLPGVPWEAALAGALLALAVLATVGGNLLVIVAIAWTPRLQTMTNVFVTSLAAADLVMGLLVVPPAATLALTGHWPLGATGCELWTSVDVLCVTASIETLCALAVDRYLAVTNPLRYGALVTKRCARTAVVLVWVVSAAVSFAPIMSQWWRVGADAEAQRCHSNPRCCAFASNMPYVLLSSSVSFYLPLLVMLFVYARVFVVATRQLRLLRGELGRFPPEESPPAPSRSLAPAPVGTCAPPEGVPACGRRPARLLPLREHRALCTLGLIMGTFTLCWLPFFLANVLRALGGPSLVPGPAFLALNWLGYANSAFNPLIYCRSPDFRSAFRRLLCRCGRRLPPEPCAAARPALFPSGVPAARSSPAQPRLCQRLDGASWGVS
measured-attribute: Emax (%)
Numeric answer only, unit % assumed.

Record excerpt, results attached:
> print(dat)
                                   molecule                               measured.on  unit.descriptor  reported.value
1  CC1C(=O)Nc2cccc(OC[C@@H](O)CNC(C)(C)Cc3ccc(Oc4ccc(C(N)=O)cn4)cc3)c21 (some centres not stated)  Beta-3 adrenergic receptor (Homo sapiens, UniProt P13945)                %            72.6
2  CC(C)(Cc1ccc(Oc2ccc(C(N)=O)cn2)cc1)NC[C@H](O)COc1cccc2c1C(Cc1ccccc1)(Cc1ccccc1)C(=O)N2  Beta-3 adrenergic receptor (Homo sapiens, UniProt P13945)                %            48.5

Query block: Given CC(C)C1C(=O)Nc2cccc(OC[C@@H](O)CNC(C)(C)Cc3ccc(Oc4ccc(C(N)=O)cn4)cc3)c21 (some centres not stated) , report its Emax on Beta-3 adrenergic receptor (Homo sapiens, UniProt P13945).
Result block: 41.7

Query block: Given CC(C)(Cc1ccc(Oc2ccc(C(N)=O)cn2)cc1)NC[C@H](O)COc1cccc2c1C(C)(C)C(=O)N2 , report its Emax on Beta-3 adrenergic receptor (Homo sapiens, UniProt P13945).
Result block: 67.9

Query block: Given CC(C)(Cc1ccc(Oc2ccc(C(N)=O)cn2)cc1)NC[C@H](O)COc1cccc2c1C1(CCCCC1)C(=O)N2 , report its Emax on Beta-3 adrenergic receptor (Homo sapiens, UniProt P13945).
Result block: 41

Query block: Given CCC1(CC)C(=O)Nc2cccc(OC[C@@H](O)CNC(C)(C)Cc3ccc(Oc4ccc(C(N)=O)cn4)cc3)c21 , report its Emax on Beta-3 adrenergic receptor (Homo sapiens, UniProt P13945).
Result block: 14.2

Query block: Given CC(C)(Cc1ccc(Oc2ccc(C(N)=O)cn2)cc1)NC[C@H](O)COc1cccc2c1C1(CCC1)C(=O)N2 , report its Emax on Beta-3 adrenergic receptor (Homo sapiens, UniProt P13945).
Result block: 71.2

Query block: Given CC(C)(Cc1ccc(Oc2ccc(C(N)=O)cn2)cc1)NC[C@H](O)COc1cccc2c1C1(CCCC1)C(=O)N2 , report its Emax on Beta-3 adrenergic receptor (Homo sapiens, UniProt P13945).
Result block: 66.3

Query block: Given CC(C)(Cc1ccc(Oc2ccc(C(N)=O)cn2)cc1)NC[C@H](O)COc1cccc2c1C1(CC1)C(=O)N2 , report its Emax on Beta-3 adrenergic receptor (Homo sapiens, UniProt P13945).
Result block: 76.8

Query block: Given CC(C)(Cc1ccc(Oc2ccc(C(N)=O)cn2)cc1)NC[C@H](O)COc1cccc2c1C(Cc1ccccc1)C(=O)N2 (some centres not stated) , report its Emax on Beta-3 adrenergic receptor (Homo sapiens, UniProt P13945).
Result block: 15.6

Query block: Given CC(C)CC1C(=O)Nc2cccc(OC[C@@H](O)CNC(C)(C)Cc3ccc(Oc4ccc(C(N)=O)cn4)cc3)c21 (some centres not stated) , report its Emax on Beta-3 adrenergic receptor (Homo sapiens, UniProt P13945).
Result block: 49.4

Query block: Given CC(C)(Cc1ccc(Oc2ccc(C(N)=O)cn2)cc1)NC[C@H](O)COc1cccc2c1CC(=O)N2 , report its Emax on Beta-3 adrenergic receptor (Homo sapiens, UniProt P13945).
Result block: 50.5

====

Assay: Oral bioavailability in rat […]
Type: ADME, organism-based
Conditions: in vivo
measured-attribute: bioavailability (%)
Numeric answer only, unit % assumed.

Query block: Using known records, supply bioavailability for CC(C)(Cc1ccc(Oc2ccc(C(N)=O)cn2)cc1)NC[C@H](O)COc1cccc2c1C(C)(C)C(=O)N2
Result block: 10

====

Molecular target: Beta-3 adrenergic receptor (Homo sapiens, UniProt P13945)
Assay: Agonist activity at human beta-3 adrenergic receptor expressed in CHO cells assessed as cAMP level
Sequence (P13945 whole entry): as the sequence (P13945 whole entry, looked up) above
measured-attribute: EC50 (nM)
Numeric answer only, unit nM assumed.

Record excerpt, results attached:
> print(dat)
                                   molecule  reported.value
1  CC(C)(Cc1ccc(Oc2ccc(C(N)=O)cn2)cc1)NC[C@H](O)COc1cccc2c1C(C)(C)C(=O)N2             5.2
2  CC(C)C1C(=O)Nc2cccc(OC[C@@H](O)CNC(C)(C)Cc3ccc(Oc4ccc(C(N)=O)cn4)cc3)c21 (some centres not stated)            13.9
3  CC1C(=O)Nc2cccc(OC[C@@H](O)CNC(C)(C)Cc3ccc(Oc4ccc(C(N)=O)cn4)cc3)c21 (some centres not stated)              12
4  CC(C)(Cc1ccc(Oc2ccc(C(N)=O)cn2)cc1)NC[C@H](O)COc1cccc2c1C(Cc1ccccc1)C(=O)N2 (some centres not stated)            12.3
5  CC(C)(Cc1ccc(Oc2ccc(C(N)=O)cn2)cc1)NC[C@H](O)COc1cccc2c1CC(=O)N2            24.4

Query block: Using known records, supply EC50 for CCC1(CC)C(=O)Nc2cccc(OC[C@@H](O)CNC(C)(C)Cc3ccc(Oc4ccc(C(N)=O)cn4)cc3)c21
Result block: 2.7

Query block: Using known records, supply EC50 for CC(C)CC1C(=O)Nc2cccc(OC[C@@H](O)CNC(C)(C)Cc3ccc(Oc4ccc(C(N)=O)cn4)cc3)c21 (some centres not stated)
Result block: 14

Query block: Using known records, supply EC50 for CC(C)(Cc1ccc(Oc2ccc(C(N)=O)cn2)cc1)NC[C@H](O)COc1cccc2c1C1(CCCCC1)C(=O)N2
Result block: 8.3

Query block: Using known records, supply EC50 for CC(C)(Cc1ccc(Oc2ccc(C(N)=O)cn2)cc1)NC[C@H](O)COc1cccc2c1C1(CC1)C(=O)N2
Result block: 6.6

====

Target: Beta-3 adrenergic receptor (Homo sapiens, UniProt P13945)
Experiment: Agonist activity at human beta-3 adrenergic receptor expressed in CHO cells assessed as cAMP level
measured-attribute: EC50 (nM)
Numeric answer only, unit nM assumed.

Record excerpt, results attached:
> print(dat)
                  compound.structure.string  measured.attribute  reported.value
1  CC(C)(Cc1ccc(Oc2ccc(C(N)=O)cn2)cc1)NC[C@H](O)COc1cccc2c1C(Cc1ccccc1)(Cc1ccccc1)C(=O)N2                EC50             268
2  CC(C)(Cc1ccc(Oc2ccc(C(N)=O)cn2)cc1)NC[C@H](O)COc1cccc2c1C1(CCCC1)C(=O)N2                EC50            10.6

Could you now consider this next molecule?
Query block: Using known records, supply EC50 for CC(C)(Cc1ccc(Oc2ccc(C(N)=O)cn2)cc1)NC[C@H](O)COc1cccc2c1C1(CCC1)C(=O)N2
Result block: 17.6
